Tested on: Pediococcus
Test: Fold increase in resistance, ratio of IC50 for chlorguanide triazine-resistant Pediococcus cerevisiae ATCC 808 to IC50 for sensitive Pediococcus cerevisiae ATCC 808
Format: functional
Could you please report measured Ratio IC50 for the items listed next?
Please give only the number in your answer, with no unit.

Ask: Indicate the recorded Ratio IC50 value for this molecule: "CCN(CC)CCNc1nc(Nc2ccc(Cl)c(Cl)c2)nc2ccccc12"
Result: 1

Ask: Specify Ratio IC50 for "CCN(CC)CCNc1nc(C(Cl)(Cl)Cl)nc2cc(Cl)ccc12" and stop.
Result: 1

Ask: Give Ratio IC50 for CN1CCCCC1CNc1nc(-c2ccc(Cl)c(Cl)c2)nc(C(Cl)(Cl)Cl)n1 (stereo unspecified)
Result: 1

Ask: Please look at this molecule and report its Ratio IC50: "CCc1nc(N)nc(N)c1-c1ccc(Cl)cc1"
Result: 3

Ask: For the molecule "N=C(N)NC(=O)Nc1ccc([N+](=O)[O-])cc1" , give its reported Ratio IC50.
Result: 2

Ask: Please give the documented Ratio IC50 of "Nc1nc(N)c2cc(Sc3ccc(Cl)cc3)ccc2n1"
Result: 14.3
